- methodNotes: growth inhibition of GSK3B-pretreated HCT116 cells – cell-based, CellTiter-Glo, 0.2 to 20 µM (AID 1117336)
- measurementConditions: HCT116 viability after GSK3B inhibitor, at 20 µM, active compounds read high
measureName: viability decrease (%)

[[record]]
molecule = "CCC(=O)O[C@]1(C(=O)SCF)[C@H](C)C[C@H]2[C@@H]3C[C@H](F)C4=CC(=O)C=C[C@]4(C)[C@@]3(F)[C@@H](O)C[C@@]21C"
observed = -30.2

[[record]]
molecule = "CN(C)c1ccc(C(=C2C=CC(=[N+](C)C)C=C2)c2ccc(N(C)C)cc2)cc1"
observed = 104

[[record]]
molecule = "CC1=C(C(=O)O)N2C(=O)[C@@H](NC(=O)[C@H](N)c3ccc(O)cc3)[C@H]2SC1"
observed = -2.2

[[record]]
molecule = "O=C(NCCO[N+](=O)[O-])c1cccnc1"
observed = -0.2

[[record]]
molecule = "Cc1cnc(C(=O)O)c[n+]1[O-]"
observed = -16.5

[[record]]
molecule = "CCn1cc(C(=O)O)c(=O)c2cc3c(cc21)OCO3"
observed = -16

[[record]]
molecule = "CCN1CCC[C@H]1CNC(=O)c1c(O)c(Cl)cc(Cl)c1OC"
observed = -21

[[record]]
molecule = "NC(=O)N/N=C/c1ccc([N+](=O)[O-])o1"
observed = 45.2

[[record]]
molecule = "COc1cc2c(cc1OC)C(=O)C(CC1CCN(Cc3ccccc3)CC1)C2 (stereo not given)"
observed = 22.6

[[record]]
molecule = "CCCN(CCC)C(=O)C(CCC(=O)O)NC(=O)c1ccccc1 (stereo not given)"
observed = -11.7


###

- measuredTarget: NAD(+) hydrolase SARM1 (Homo sapiens)
- methodNotes: blocking NAD cleavage by SARM1 SAM-TIR – cell lysate, NAD-Glo luminescence (AID 1508614);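 further: higher remaining NAD means stronger inhibition of SARM1 NADase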
- measurementConditions: SAM-TIR HEK293T lysate NADase, at 1 µM
Calls of active or inactive are those of the source.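 The calls were made as follows: active = compound whose remaining NAD level is above about 45 nM (limit read from the data); inactive = the rest.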
Possible outcomes: 1 = active, 0 = inactive

[[record]]
compound = "COc1cc(C(=O)OCCCN2CCCN(CCCOC(=O)c3cc(OC)c(OC)c(OC)c3)CC2)cc(OC)c1OC"
label = 0

[[record]]
compound = "CCCCOC(=O)c1ccc(N)cc1"
label = 0

[[record]]
compound = "COc1ccc(NS(=O)(=O)c2ccc(N)cc2)nn1"
label = 0

[[record]]
compound = "C[C@]12CCC(=O)C=C1CC[C@@H]1[C@@H]2[C@@H](O)C[C@@]2(C)[C@H]1CC[C@]2(O)C(=O)COP(=O)(O)O"
label = 0

[[record]]
compound = "C[N+](C)(C)CCOC(N)=O"
label = 0

[[record]]
compound = "OCc1cccnc1"
label = 0

[[record]]
compound = "CC(=O)OCC1=C(C(=O)O)N2C(=O)[C@@H](NC(=O)Cc3cccs3)[C@H]2SC1"
label = 0

[[record]]
compound = "COc1ccc(C(=O)CC(=O)c2ccc(C(C)(C)C)cc2)cc1"
label = 0

[[record]]
compound = "NC(=O)NO"
label = 0

[[record]]
compound = "Oc1ccc(C2CNCCc3c2cc(O)c(O)c3Cl)cc1 (stereo not given)"
label = 0

[[record]]
compound = "COCCc1ccc(OCC(O)CNC(C)C)cc1 (stereo not given)"
label = 0

[[record]]
compound = "OCC(O)CN1CCN(c2ccccc2)CC1 (stereo not given)"
label = 0

[[record]]
compound = "Nc1ccc(S(=O)(=O)Nc2nccs2)cc1"
label = 0

[[record]]
compound = "O=C(O)c1ccccc1Nc1cccc(C(F)(F)F)c1"
label = 0

[[record]]
compound = "NCCCCCC(=O)O"
label = 0

[[record]]
compound = "O=C(O)c1cc(=O)c2ccccc2o1"
label = 0

[[record]]
compound = "C#CCN[C@@H]1CCc2ccccc21"
label = 0

[[record]]
compound = "CCOC(N)=O"
label = 0

[[record]]
compound = "Nc1nc(=S)c2[nH]cnc2[nH]1"
label = 0

[[record]]
compound = "NS(=O)(=O)c1cc2c(cc1Cl)NC(C(Cl)Cl)NS2(=O)=O (stereo not given)"
label = 0

[[record]]
compound = "COc1ccnc(CS(=O)c2nc3ccc(OC(F)F)cc3[nH]2)c1OC (stereo not given)"
label = 0

[[record]]
compound = "O=C(O)CSCC(=O)NC1CCSC1=O (stereo not given)"
label = 0

[[record]]
compound = "CC[N+](CC)(CC)CCOc1cccc(OCC[N+](CC)(CC)CC)c1OCC[N+](CC)(CC)CC"
label = 0

[[record]]
compound = "CN1CCC(=C2c3ccccc3Sc3ccccc32)CC1"
label = 1

[[record]]
compound = "CC(=O)NS(=O)(=O)c1ccc(N)cc1"
label = 0

[[record]]
compound = "Cc1ncc([N+](=O)[O-])n1CC(O)CCl (stereo not given)"
label = 0

[[record]]
compound = "NS(=O)(=O)c1cc(C(=O)O)c(NCc2ccco2)cc1Cl"
label = 0

[[record]]
compound = "C[N+](C)(C)CCCCCC[N+](C)(C)C"
label = 0

[[record]]
compound = "NC(N)=NS(=O)(=O)c1ccc(N)cc1"
label = 0

[[record]]
compound = "Nc1ccc(S(=O)(=O)Nc2ccccn2)cc1"
label = 0

[[record]]
compound = "C/C=C/c1ccc(OC)cc1"
label = 0

[[record]]
compound = "COc1ccc(-c2cc(C(F)F)nn2-c2ccc(S(N)(=O)=O)cc2)cc1F"
label = 0

[[record]]
compound = "CCn1cc(C(=O)O)c(=O)c2cc(F)c(N3CCNCC3)nc21"
label = 0

[[record]]
compound = "Cc1onc(-c2ccccc2)c1C(=O)N[C@@H]1C(=O)N2[C@@H]1SC(C)(C)[C@@H]2C(=O)O"
label = 0

[[record]]
compound = "C[C@@H]1CN(c2c(F)c(F)c3c(=O)c(C(=O)O)cn(C4CC4)c3c2F)C[C@H](C)N1"
label = 0

[[record]]
compound = "O=C1OC(c2ccc(O)cc2)(c2ccc(O)cc2)c2ccccc21"
label = 0

[[record]]
compound = "O=C(NCCO[N+](=O)[O-])c1cccnc1"
label = 0

[[record]]
compound = "Oc1c(Br)cc(Br)c2cccnc12"
label = 0

[[record]]
compound = "C#C[C@]1(O)CC[C@H]2[C@@H]3[C@H](C)CC4=C(CCC(=O)C4)[C@H]3CC[C@@]21C"
label = 0

[[record]]
compound = "NC[C@H](O)c1ccc(O)c(O)c1"
label = 0

[[record]]
compound = "Nc1ncnc2nc[nH]c12"
label = 0

[[record]]
compound = "CO/N=C1\\CN(c2nc3c(cc2F)c(=O)c(C(=O)O)cn3C2CC2)CC1CN (stereo not given)"
label = 0

[[record]]
compound = "O=C(O)c1ccc(S(=O)(=O)N(Cl)Cl)cc1"
label = 0

[[record]]
compound = "Nc1ccc(C(=O)NCC(=O)O)cc1"
label = 0

[[record]]
compound = "Cc1oncc1C(=O)Nc1ccc(C(F)(F)F)cc1"
label = 0

[[record]]
compound = "CCCCOc1ccc(CC(=O)NO)cc1"
label = 0

[[record]]
compound = "COc1cc2c3cc1Oc1cc(ccc1O)C[C@@H]1c4c(cc(OC)c(O)c4Oc4ccc(cc4)C[C@@H]3N(C)CC2)CC[N+]1(C)C"
label = 0

[[record]]
compound = "COc1ccccc1OCC(O)CN1CCN(CC(=O)Nc2c(C)cccc2C)CC1 (stereo not given)"
label = 0

[[record]]
compound = "COc1cc2c(cc1OC)C(=O)C(CC1CCN(Cc3ccccc3)CC1)C2 (stereo not given)"
label = 0

[[record]]
compound = "CCOC(=O)C(C)(C)Oc1ccc(Cl)cc1"
label = 0


Attribution: PubChem BioAssay
